System: MS2 coat protein
Experiment: apparent KD of MS2 coat protein; designed switch direction (-1 OFF switch, 1 ON switch): -1; higher = weaker reporter binding
Conditions: input ligand: none
Please respond with reported apparent KD of MS2 coat protein for every item in the list.
Numbers only, in µM.

Completed entries (count: 2):
>  <Chain>
AACUGGACAGGAUAUGUUCUUGAGCACUUGAGGAUCACCCAAGUCAUCAAGAACUCAGGCACAGAAGGGUUUAUGA [jl-ex5.4.60 ViennaUCT mod] (Eterna round: R97, puzzle: Exclusion 5)

>  <Measure>
apparent KD of MS2 coat protein

>  <Measured value>
0.0134

$$$$
>  <Chain>
AUCUCUCGUGUUAGGAUAUCCAGUUAGUUCGUGCGGGAGAAGGAACAUGAGGAUCACCCAUGUAAACAAAUCGC [BmEX4 B.21] (Eterna round: R97, puzzle: Brourd's mod of Exclusion 4)

>  <Measure>
apparent KD of MS2 coat protein

>  <Measured value>
0.0185

$$$$

Field: apparent KD of MS2 coat protein. Fill in for each record below.
1. CGUAGCAAUGUGAGGAUAUCUAGAGCCUCGGCUCUAGAGAAGGCACAUGAGGAUCACCCAUGUGAUUAGCUACG [BmEx4/9-B2] (Eterna round: R97, puzzle: Brourd's mod of Exclusion 4)
2. UUUUUAUAUGAAGGAUAUACUUAACAUGAGGAUCACCCAUGUGGUGUUGUGAGUGAGUGAGUUUAGUAGAAGGUCAAUUCUUAU [JMF's solution 82] (Eterna round: R96, puzzle: Exclusion NG 2)
3. UUACUCGCAGGAUAUACGGGACAUACACAUCAAACUACACGACAUGAGGAUCACCCAUGUAGAAGGGCGUUACA [Blue and Green] (Eterna round: R97, puzzle: Exclusion 2)

Data returned:
0.405
0.395
0.0512

###

System: MS2 coat protein
Test: apparent KD of MS2 coat protein; designed switch direction (-1 OFF switch, 1 ON switch): 1; higher = weaker reporter binding
Conditions: input ligand: FMN 200 uM
Measure: apparent KD of MS2 coat protein (nM)
Answers are plain numbers, in nM.

Completed entries (count: 2):
>  <Chain>
GAGUAGUUGAAAGGAUAUUGAUUAUUGUAGGAUCAAGAAGGUUUUAACAUGAGGAUCACCCAUGUAGGACUAUAUAUGUGAAUA [Parity 95 - Jieux - Same State NG 1] (Eterna round: R96, puzzle: Same State NG 1)

>  <Target desc>
MS2 coat protein

>  <apparent KD of MS2 coat protein, nM>
12.2

$$$$
>  <Chain>
GUUACAUGAGGAUCACCCAUGUAUGUGUGGGAGUAAGUGUCUUAGGAUAUCUAUGAUUUAACUUAAGAGAAGGAAGAUUGUUGU [JMF's solution 81] (Eterna round: R96, puzzle: Same State NG 3)

>  <Target desc>
MS2 coat protein

>  <apparent KD of MS2 coat protein, nM>
123

$$$$

Data request: Look up and report measured apparent KD of MS2 coat protein for this entry: AAAGAAAACGCAGGAUAUACCCGGGAAACCGAGGUAGAAGGGUGAACCAAAACAAAACUAAAUAACAUGAGGAUCACCCAUGUC [Biarzara] (Eterna round: R96, puzzle: Same State NG 1)
Data returned: 162

###

Tested on: MS2 coat protein
Test: apparent KD of MS2 coat protein; designed switch direction (-1 OFF switch, 1 ON switch): -1; higher = weaker reporter binding
Conditions: input ligand: FMN 200 uM
Please respond with reported apparent KD of MS2 coat protein for every item in the list.
Numbers only, in nM.

>  <Chain>
ACAUGAGGAUCACCCAUGUAAUCAUGAUGGCUGAUGUAGAGGUAGGAUAUGAGUGGCUUUCUAUCUCAGAAGGACCAAGACUGG [Deportation 39 - Jieux - Exclusion NG 3] (Eterna round: R96, puzzle: Exclusion NG 3)

>  <Unit text>
nM

>  <apparent KD of MS2 coat protein>
29

$$$$
>  <Chain>
GGUCGAGAAGUUAGGAUAUCGAUAAAACAGAAAUUUGAGAAGGGACUUGAGGAUCACCCAAGUUAUUGGUUCUC [Anaranle] (Eterna round: R97, puzzle: Brourd's mod of Exclusion 4)

>  <Unit text>
nM

>  <apparent KD of MS2 coat protein>
17.8

$$$$
>  <Chain>
AUUGUUUAUGUAGGAUAUGCCUGGCGUGCCUUUGCAGAAGGACAUGAGGAUCACCCAUGUAACAUGAGGCUCACCCAUGUCGCG [salish99_ExNG1_r04_113] (Eterna round: R96, puzzle: Exclusion NG 1)

>  <Unit text>
nM

>  <apparent KD of MS2 coat protein>
297

$$$$

Kindly review the next sequence as well.
Data request: Look up and report measured apparent KD of MS2 coat protein for this entry: UUAUGAGAGCAGGAUAUCUUAUUUUUUUUUUGUGGAGAAGGGCUCACAUGAGGAUCACCCAUGUGGUCCUAGAU [LRO-Excl6-25-mod of 4.86 by jal] (Eterna round: R97, puzzle: Exclusion 6)
Data returned: 47.4

###

System: K4 kissing-loop RNA reporter
Test: apparent KD of K4 kissing-loop reporter; higher = weaker reporter binding
Settings: Eterna round: R107; input ligand: arginine 13.2 mM
Please respond with reported apparent KD of K4 kissing-loop reporter for every item in the list.
Numbers only, in nM.

>  <Chain>
UGGUUUGGAAGUGAUGUUUCUAUAAGUGAUACCAGACAAAAGAAAGUCCCUUGGCAGCACAAUGAUGCCAAGGAAACGGCAUGAU [#15 K4 Theophylline A Same State]

>  <apparent KD of K4 kissing-loop reporter (nM)>
164

$$$$
>  <Chain>
GCCGUAGAUUGAAGGAGCGGGAGAGGGAAAGUGAUGUUUUCUCUAUGACGGCGUCCUCGAUCCCAGGUAGGUCGCAAUCUACGGC

>  <apparent KD of K4 kissing-loop reporter (nM)>
80.7

$$$$

Kindly review the next sequence as well.
Data request: Look up and report measured apparent KD of K4 kissing-loop reporter for this entry: UUUAUAUUGUCGGCCGCCACUGGAUUAAUAUUUGUAUAAUCUAGUUCAAAGUGAUGUUUUGAGUCCAGGACCGGGACAUUUGAUA [JR_Nu_ExcTryptoB_Sub029]
Data returned: 501

###

System: MS2 coat protein
Assay: apparent KD of MS2 coat protein; designed switch direction (-1 OFF switch, 1 ON switch): -1; higher = weaker reporter binding
Conditions: input ligand: none
Measure: apparent KD of MS2 coat protein (µM)
Numbers only, in µM.

Completed entries (count: 4):
>  <Chain>
GAUAUGUAAGGAUAUCUAGAAACGAGCGCAGGCUCAAGAAAAGAGAAGGUACAUGAGGAUCACCCAUGUUCCUG [EX4 A.13] (Eterna round: R97, puzzle: Exclusion 4)

>  <Target desc>
MS2 coat protein

>  <Measured value>
0.0179

$$$$
>  <Chain>
CCCGCAGGCUUUUUGCUCGACAUGAGGAUCACCCAUGUUGUAUGGGUUGUGUGUGUGUGGUGCAUAUAUAUGGUCCU [-25.6, -50.1 kcal, A 16%] (Eterna round: R97, puzzle: Sensor, turn-off variant 1)

>  <Target desc>
MS2 coat protein

>  <Measured value>
0.469

$$$$
>  <Chain>
GGCAGUCGAGGAUAUACGAUCGUGCUUCGGCACGUAAGAUCACAUGAGGAUCACCCAUGUAGAAGGCGACUGCC [Mod 2 - Jieux - Exclusion 2] (Eterna round: R97, puzzle: Exclusion 2)

>  <Target desc>
MS2 coat protein

>  <Measured value>
0.0334

$$$$
>  <Chain>
ACUUAUUGAGGAUAUACAGAAAAUUACAUGAGGAUCACCCAUGUUCUUCAAUGUAUAUAUGUAGAAGGCAGAAUAU [Mat - Exclusion 5 - JL Mod - D19] (Eterna round: R97, puzzle: Exclusion 5)

>  <Target desc>
MS2 coat protein

>  <Measured value>
0.0165

$$$$

Kindly review the next sequence as well.
Data request: Using MS2 coat protein as the test system, report measured apparent KD of MS2 coat protein of AUGGAGGUAGUCAGGAUAUCGGGCGCUCGGGCGUACGAGAAGGGACAUGAGGAUCACCCAUGUCGCUCAUUCCA [BmEX4 C.2] (Eterna round: R97, puzzle: Brourd's mod of Exclusion 4) .
Data returned: 0.0234

###

Tested on: K4 kissing-loop RNA reporter;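 further: bound reporter read as fluorescence of individual clusters on recovered sequencing chips by microscopy, with normalized cluster intensities fitted with a binding model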
Test: apparent KD of K4 kissing-loop reporter; higher = weaker reporter binding
Settings: Eterna round: R107; input ligand: none
Measure: apparent KD of K4 kissing-loop reporter (nM)
One number for each entry, in nM.

>  <Chain>
AAAAUAAAUCAGUGAUGUUGGUAUCCGGAUACCAGCGAUAAUCAUCGCCCUUGGCAGCCGUGGACGUACAAAAUAAGUACGUCCU [MatMod 16 - Jieux - Same State - Theophylline A]

>  <apparent KD of K4 kissing-loop reporter (nM)>
168

$$$$
>  <Chain>
GGCGAAUAAAAUCGCCUAGAGAGAAAGGAUACCAGCACCCGGCGGUGCCCUUGGCAGCCUAGCCCAGUGAUGUUGGGUCCUCUAA [Biaveinbe]

>  <apparent KD of K4 kissing-loop reporter (nM)>
140

$$$$

Data request: Look up and report measured apparent KD of K4 kissing-loop reporter for this entry: UAUCUUUACUGAAGGAGCGAGCAUUUUGGAGUGAUGUUCCGAGCGAGUGAUGUUCGCAUAGCUCAGGUAGGUCGCAGUGGGAAAA [Same State Arginie B GF 15]
Data returned: 143

Sourced from the supplement of paper PMC9170038
